# TESTED SYSTEM: aryl sulphatase
# ASSAY REMARKS: Aryl sulfatase activity, mouse macrophages
# DETAILS: Table 3; read-out: IC50 Aryl Sulfatase, Mouse Macrophage
pIC50: −log10 of the molar value.

COMPOUND	TESTED SYSTEM	pIC50
COC(=O)[BH2-][N+](C)(C)C [Compound 16]	aryl sulphatase	4.75
C[NH+](C)[BH2-]C#N [Compound 33]	aryl sulphatase	5.04
C[N+](C)(C)[BH2-]C#N [Compound 34]	aryl sulphatase	5.03
O=C(O)[BH2-][P+](c1ccccc1)(c1ccccc1)c1ccccc1 [Compound 12]	aryl sulphatase	5.07
COC(=O)[BH2-][NH+](C)C [Compound 15]	aryl sulphatase	5.13
C[NH2+][BH2-]C(=O)NO.[H+].c1ccc([B-](c2ccccc2)(c2ccccc2)c2ccccc2)cc1 [Compound 75]	aryl sulphatase	5.82

----------
# TESTED SYSTEM: aryl sulphatase
# ASSAY REMARKS: Aryl sulfatase activity, mouse macrophages
# DETAILS: Table 3; read-out: IC50 Aryl Sulfatase, Mouse Macrophage
pIC50: −log10 of the molar value.

COMPOUND	pIC50
CCNC(=O)[BH2-][NH2+]C	5.03
CCOC(=O)[BH2-][NH+](C)C	5.03
C[N+](C)(C)[BH2-]C(=O)NO.[H+].c1ccc([B-](c2ccccc2)(c2ccccc2)c2ccccc2)cc1	5.86
CC[N+]#C[BH2-][N+](C)(C)C.F[B-](F)(F)F	5.22
C[N+](C)(C)[BH2-]C(C#N)c1ccccc1 (stereo not shown)	5.47
CCCCCCCCCCCCCCCC[N+](C)(C)[BH2-]C(=O)O	5.01
O=C(O)[BH2-][NH+]1CCOCC1	5.12
C[N+](C)(C)[BH2-]C(=O)NO.Cl	5.85
C[NH2+][BH2-]C(=O)O	5.08
CCCCCCCCCCCCCCCC[N+](C)(C)[BH2-]C#N	5.15

----------
pIC50: −log10 of the molar value.
prostaglandin cyclooxygenase (Bos taurus, UniProt O62664) measurements of pIC50, listed per entry.
Sequence (O62664 25-600): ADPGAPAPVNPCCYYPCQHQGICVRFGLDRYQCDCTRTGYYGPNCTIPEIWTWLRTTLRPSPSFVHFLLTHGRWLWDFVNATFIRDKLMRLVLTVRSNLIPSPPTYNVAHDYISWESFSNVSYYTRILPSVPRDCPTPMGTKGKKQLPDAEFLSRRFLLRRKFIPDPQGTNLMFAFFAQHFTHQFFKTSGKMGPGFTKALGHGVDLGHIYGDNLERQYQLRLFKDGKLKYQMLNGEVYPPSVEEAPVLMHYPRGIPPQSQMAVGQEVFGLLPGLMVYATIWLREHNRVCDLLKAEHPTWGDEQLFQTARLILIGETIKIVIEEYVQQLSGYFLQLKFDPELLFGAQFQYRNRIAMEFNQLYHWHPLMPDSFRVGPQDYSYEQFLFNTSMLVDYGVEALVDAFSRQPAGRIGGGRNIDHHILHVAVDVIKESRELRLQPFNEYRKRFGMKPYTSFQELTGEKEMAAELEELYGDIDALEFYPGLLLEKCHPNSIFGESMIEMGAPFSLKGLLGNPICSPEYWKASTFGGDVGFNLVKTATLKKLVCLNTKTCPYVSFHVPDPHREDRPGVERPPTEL
PROPERTY MEASURED: pIC50

COMPOUND	EXPERIMENTAL RESULT
C[N+](C)(C)[BH2-]C#N	5.23
C[N+](C)(C)[BH2-]C(C#N)c1ccccc1 (centres unmarked)	6.15
O=C(O)[BH2-][P+](c1ccccc1)(c1ccccc1)c1ccccc1	5.12
CCCCCCCCCCCCCCCC[N+](C)(C)[BH2-]C(=O)O	5.61
COC(=O)[BH2-][NH+](C)C	5.54

----------
IC50 values, listed per item
# TESTED SYSTEM: 5'-lipoxygenase (Homo sapiens)
# Construct: endogenous in cells
# Sequence (P09917 whole entry): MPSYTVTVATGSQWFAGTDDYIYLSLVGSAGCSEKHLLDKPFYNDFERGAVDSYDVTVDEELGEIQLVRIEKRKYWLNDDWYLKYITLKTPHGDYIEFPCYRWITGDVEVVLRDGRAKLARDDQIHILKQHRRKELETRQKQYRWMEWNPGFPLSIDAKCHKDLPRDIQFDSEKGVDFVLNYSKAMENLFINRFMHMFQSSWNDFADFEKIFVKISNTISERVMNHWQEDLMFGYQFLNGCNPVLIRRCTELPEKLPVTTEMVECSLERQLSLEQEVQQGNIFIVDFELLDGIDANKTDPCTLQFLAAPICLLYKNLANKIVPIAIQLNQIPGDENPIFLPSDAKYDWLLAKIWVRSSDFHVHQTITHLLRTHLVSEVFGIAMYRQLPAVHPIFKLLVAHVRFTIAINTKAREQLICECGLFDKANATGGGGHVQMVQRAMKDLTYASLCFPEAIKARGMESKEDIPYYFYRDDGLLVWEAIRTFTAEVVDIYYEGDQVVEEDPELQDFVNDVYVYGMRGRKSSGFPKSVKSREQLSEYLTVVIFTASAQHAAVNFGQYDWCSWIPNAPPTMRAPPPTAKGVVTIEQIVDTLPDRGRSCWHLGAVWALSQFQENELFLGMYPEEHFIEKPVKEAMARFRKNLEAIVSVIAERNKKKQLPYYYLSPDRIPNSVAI
# ASSAY REMARKS: 5'-Lipoxygenase activity, human leukocytes
# DETAILS: Table 7
PROPERTY MEASURED: IC50

SMILES CODE	EXPERIMENTAL RESULT
O=C(O)[BH2-][P+](c1ccccc1)(c1ccccc1)c1ccccc1	4.77 µM
C[N+](C)(C)[BH2-]C#N	6.43 µM
CCCCCCCCCCCCCCCC[N+](C)(C)[BH2-]C(=O)O	1.53 µM
C[NH+](C)[BH2-]C#N	3.47 µM
COC(=O)[BH2-][NH+](C)C	5.37 µM

----------
# TESTED SYSTEM: elastase
# ASSAY REMARKS: Elastase activity, mouse macrophages
# Type: cell-based, mouse (J774 macrophages)
# DETAILS: Table 5; read-out: IC50 Elastase, Mouse Macrophage
pIC50: −log10 of the molar value.
Documented pIC50 across a set of compounds
PROPERTY MEASURED: pIC50

COMPOUND	EXPERIMENTAL RESULT
CCCCCCCCCCCCCCCCCC[N+](C)(C)[BH2-]C#N [Compound 36]	4.99
CCCCCCCCCCCCCCCC[N+](C)(C)[BH2-]C#N [Compound 35]	5.56
C[NH+](C)[BH2-]C#N [Compound 33]	5.60
C[N+](C)(C)[BH2-]C#N [Compound 34]	5.87
CCNC(=O)[BH2-][NH2+]C [Compound 23]	5.48
[BH3-][NH2+]C(C)(C)C [Compound 1]	6.66
COC(=O)[BH2-][N+](C)(C)C [Compound 16]	5.06
COC(=O)[BH2-][NH+]1CCC(c2ccccc2)CC1 (stereo not drawn) [Compound 87]	5.16
[BH3-][NH+]1CCOCC1 [Compound 78]	5.23
C[N+](C)(C)[BH2-]C(C#N)c1ccccc1 (stereo not drawn) [Compound 46]	5.28
COC(=O)[BH2-][NH+](C)C [Compound 15]	5.67
C[NH2+][BH2-]C(=O)O [Compound 2]	5.63
C[NH2+][BH2-]C(=O)NO.[H+].c1ccc([B-](c2ccccc2)(c2ccccc2)c2ccccc2)cc1 [Compound 75]	5.12
C[N+](C)([BH2-]C(=O)O)CC[N+](C)(C)[BH2-]C(=O)O [Compound 7]	5.56
O=C(O)[BH2-][P+](c1ccccc1)(c1ccccc1)c1ccccc1 [Compound 12]	5.52
O=C(O)[BH2-][NH+]1CCOCC1 [Compound 83]	6.02
CC[N+]#C[BH2-][N+](C)(C)C.F[B-](F)(F)F [Compound 74]	5.63
CCOC(=O)[BH2-][NH+](C)C [Compound 20]	5.48
CCCCCCCCCCCCCCCC[N+](C)(C)[BH2-]C(=O)O [Compound 8]	5.74
CCCC[N+](CCCC)(CCCC)CCCC.CCNC(=O)[BH2-][P+]([O-])(OCC)OCC [Compound 57]	5.05
C[N+](C)(C)[BH2-]C(=O)NO.[H+].c1ccc([B-](c2ccccc2)(c2ccccc2)c2ccccc2)cc1 [Compound 76]	5.32
C[N+](C)(C)[BH2-]C(=O)NO.Cl [Compound 77]	5.83
CCCCCCCCCCCCCCCCCC[N+](C)(C)[BH2-]C(=O)O [Compound 9]	5.20
C[NH+](C)[BH2-]C(=O)O [Compound 3]	5.57
